Data origin: ChEMBL document CHEMBL3576795

Tested on: Plasmodium falciparum
Assay: Antiplasmodium activity against chloroquine-sensitive Plasmodium falciparum PoW infected in human RBC assessed as parasite growth inhibition after 42 hrs by microculture radioisotope technique
Type: functional, organism-based
pIC50: −log10 of the molar value.
measuredMetric: pIC50

compound: C/C=C/c1cc(OC)c(OC(C)Cc2cc(OC)c(OC)c(OC)c2)c(OC)c1 (stereo unspecified)
numericValue: 4.91
